- System: HCT-116
- testProtocol: cells
- measurementSetup: Homo sapiens, HCT-116, 72 h

smilesRecord | IC50 (nM)
Cn1ncc(Cl)c1-c1cc(C(=O)N[C@@H]2CN[C@H](CCO)C[C@H]2c2ccc(Cl)c(Cl)c2)oc1Cl | 340
Cn1ncc(Br)c1-c1ccc(C(=O)N[C@@H]2CNCC[C@H]2c2ccc(F)c(F)c2)cc1 | 22200
C=CC[C@@H]1C[C@@H](c2ccc(Cl)c(Cl)c2)[C@H](NC(=O)c2cc(-c3c(Cl)cnn3C)c(Cl)o2)CN1 | 780
Cn1ncc(Br)c1-c1ccc(C(=O)N[C@@H]2CNCC[C@H]2c2ccc(Cl)cc2)o1 | 3760

* * *

- testProtocol: Stability in mouse plasma at 100 ug/ml after 1 hr by LC/MS analysis
- Assay type: ADME, cell-free
- measurementSetup: read-out: Stability

smilesRecord | remaining at 1 h, 100 ug/ml
CNC(=O)C[C@@H]1C[C@@H](c2ccc(F)c(F)c2)[C@H](NC(=O)c2cc(-c3c(Cl)cnn3C)c(Cl)o2)CN1 | > 99%
Cn1ncc(Cl)c1-c1cc(C(=O)N[C@@H]2CN[C@H](CCO)C[C@H]2c2ccc(F)c(F)c2)oc1Cl | > 99%

* * *

- testProtocol: Cmax in Sprague-Dawley rat at 40 mg/kg, ig measured up to 24 hrs by LC-MS/MS analysis
- Assay type: ADME, organism-based
- Parameters: dose 40 mg/kg, route […]
- measurementSetup: in vivo, po

smilesRecord | Cmax (ng/mL)
CNC(=O)C[C@@H]1C[C@@H](c2ccc(F)c(F)c2)[C@H](NC(=O)c2cc(-c3c(Cl)cnn3C)c(Cl)o2)CN1 | 407

* * *

- Test system: HCT-116
- testProtocol: cells
- measurementSetup: Homo sapiens, HCT-116, 72 h
quantityName: log10 of IC50 (log10 of the value in nM)

molecule | quantityName | observed
Cn1ncc(Cl)c1-c1ccc(C(=O)N[C@@H]2CNCC[C@H]2c2ccc(F)c(F)c2)cn1 | log10 of IC50 | 4.54
Cn1ncc(Cl)c1-c1cc(C(=O)N[C@@H]2CN[C@H](CC(O)CO)C[C@H]2c2ccc(Cl)c(Cl)c2)oc1Cl (stereo partly drawn) | log10 of IC50 | 3.05
Cn1ncc(Cl)c1-c1cc(C(=O)N[C@@H]2CN[C@H](CCN3CCC(O)CC3)C[C@H]2c2ccc(Cl)c(Cl)c2)oc1Cl | log10 of IC50 | 4.14
CCC[C@@H]1C[C@@H](c2ccc(Cl)c(Cl)c2)[C@H](NC(=O)c2cc(-c3c(Cl)cnn3C)c(Cl)o2)CN1 | log10 of IC50 | 3.01
CNC(=O)C[C@@H]1C[C@@H](c2ccc(Cl)c(Cl)c2)[C@H](NC(=O)c2cc(-c3c(Cl)cnn3C)c(Cl)o2)CN1 | log10 of IC50 | 2.65
Cn1ncc(Cl)c1-c1cc(C(=O)N[C@@H]2CN[C@H](CCN3CCCC3)C[C@H]2c2ccc(Cl)c(Cl)c2)oc1Cl | log10 of IC50 | 3.29
Cn1ncc(Cl)c1-c1cc(C(=O)N[C@@H]2CN[C@H](CC(=O)NC3CC3)C[C@H]2c2ccc(Cl)c(Cl)c2)oc1Cl | log10 of IC50 | 2.87
O=C(N[C@@H]1CNCC[C@H]1c1ccc(Cl)cc1)c1ccc(-c2ncnc3c2CCC3O)s1 (stereo partly drawn) | log10 of IC50 | 4.36
Cn1ncc(Cl)c1-c1cc(C(=O)N[C@H]2CNCC[C@@H]2c2ccc(F)c(F)c2)oc1Cl | log10 of IC50 | 3.04
Cn1ncc(Cl)c1-c1cc(C(=O)N[C@@H]2CNCC[C@H]2c2ccc(Cl)cc2)sc1Cl | log10 of IC50 | 3.39
Cn1cc(-c2c(Cl)cnn2C)cc1C(=O)N[C@@H]1CNCC[C@H]1c1ccc(Cl)cc1 | log10 of IC50 | 3.48
Cn1nccc1-c1ccc(C(=O)N[C@@H]2CNCC[C@H]2c2cccc(F)c2)nc1 | log10 of IC50 | 3.75
Cn1ncc(Cl)c1-c1cc(C(=O)N[C@@H]2CN[C@H](CC(=O)NC3CCC3)C[C@H]2c2ccc(Cl)c(Cl)c2)oc1Cl | log10 of IC50 | 2.63
Cn1ncc(Br)c1-c1cc(C(=O)N[C@@H]2CNCC[C@H]2c2ccc(Cl)cc2)n(C)c1Br | log10 of IC50 | 3.87
Cn1ncc(Cl)c1-c1cc(C(=O)N[C@@H]2CNCC[C@H]2c2cccc(C(F)(F)F)c2)oc1Cl | log10 of IC50 | 2.59
CNC(=O)C[C@@H]1C[C@@H](c2ccc(F)c(F)c2)[C@H](NC(=O)c2cc(-c3c(Cl)cnn3C)c(Cl)o2)CN1 | log10 of IC50 | 3.04
Cn1nccc1-c1ccc(C(=O)N[C@@H]2CNCC[C@H]2c2ccc(F)c(F)c2)cn1 | log10 of IC50 | 4.38
Cn1ncc(Cl)c1-c1cc(C(=O)N[C@@H]2CNCC[C@H]2c2ccc(Cl)c(C(F)(F)F)c2)sc1Cl | log10 of IC50 | 3.24
Cn1ncc(Cl)c1-c1cc(C(=O)N[C@@H]2CNCC[C@H]2c2ccc(Cl)c(Cl)c2)oc1Cl | log10 of IC50 | 2.45
Cn1ncc(Br)c1-c1oc(C(=O)N[C@@H]2CNCC[C@H]2c2ccc(Cl)cc2)cc1Br | log10 of IC50 | 4.03
Cn1ncc(Cl)c1-c1oc(C(=O)N[C@@H]2CNCC[C@H]2c2ccc(Cl)cc2)cc1Br | log10 of IC50 | 4.07
CC(=O)NCC[C@@H]1C[C@@H](c2ccc(F)c(F)c2)[C@H](NC(=O)c2cc(-c3c(Cl)cnn3C)c(Cl)o2)CN1 | log10 of IC50 | 2.96
Cn1ncc(Cl)c1-c1cc(C(=O)N[C@@H]2CN[C@H](CC(N)=O)C[C@H]2c2ccc(Cl)c(Cl)c2)oc1Cl | log10 of IC50 | 2.81
CNc1cc(-c2ccc(C(=O)N[C@@H]3CNCC[C@H]3c3ccc(Cl)cc3)o2)ncn1 | log10 of IC50 | 4.57
Cn1ncc(Cl)c1-c1cc(C(=O)N[C@@H]2CNCC[C@H]2c2ccc(Cl)cc2)n(C)c1Cl | log10 of IC50 | 3.87
Cn1ncc(Cl)c1-c1cc(C(=O)N[C@@H]2CNCC[C@H]2c2cccc(F)c2)sc1Cl | log10 of IC50 | 3.97
Cn1ncc(Cl)c1-c1cc(C(=O)N[C@@H]2CN[C@H](CC(=O)NCCO)C[C@H]2c2ccc(Cl)c(Cl)c2)oc1Cl | log10 of IC50 | 2.83
Cn1ncc(Cl)c1-c1cc(C(=O)N[C@@H]2CN[C@H](CCN3CCOCC3)C[C@H]2c2ccc(Cl)c(Cl)c2)oc1Cl | log10 of IC50 | 3.19
Cn1ncc(Cl)c1-c1cc(C(=O)N[C@@H]2CN[C@H](CCn3cncn3)C[C@H]2c2ccc(Cl)c(Cl)c2)oc1Cl | log10 of IC50 | 2.75
Cn1ncc(Cl)c1-c1cc(C(=O)N[C@@H]2CN[C@H](CC(=O)NCC(O)CO)C[C@H]2c2ccc(Cl)c(Cl)c2)oc1Cl (stereo partly drawn) | log10 of IC50 | 3.85
Cn1ncc(Cl)c1-c1cc(C(=O)N[C@@H]2CNCC[C@H]2c2ccc(C(F)(F)F)cc2)oc1Cl | log10 of IC50 | 2.45
O=C(N[C@@H]1CNCC[C@H]1c1ccc(Cl)cc1)c1ccc(-c2cn[nH]c2)o1 | log10 of IC50 | 4.34
Cn1cc(-c2coc(C(=O)N[C@@H]3CNCC[C@H]3c3ccc(Cl)cc3)c2)cn1 | log10 of IC50 | 4.37
